Test system: CAMK2B
Parameters: species or system human, MV4-11 + K-562 + COLO205 + SK-N-BE2 + OVCAR-8
measurement.conditions: read-out: apparent Kd; compound concentrations:100 nM and 1000 nM (sheet 'Samples'); n = 1
Here, each record is paired with measured potency estimated from few doses data.

compound: Cl.Oc1ccc2ncnc(Nc3ccc(OCc4ccccc4)cc3)c2c1 [GI262866A]
potency estimated from few doses: 391 nM
//
compound: COc1cc2ncnc(Nc3cccc(Br)c3)c2cc1OC.Cl [GI230329A]
potency estimated from few doses: 405 nM
//
compound: FC(F)(F)c1ccccc1-c1cc(-c2c[nH]nc2-c2ccccn2)ccn1 [GW679396X]
potency estimated from few doses: 628 nM
//
compound: C[C@@H](c1ccccc1)[C@@H](C(=O)Nc1ccc(I)cc1F)N1C(=O)N[C@H](c2ccc(OC[C@H](O)CO)cc2)C1=O
potency estimated from few doses: 544 nM
